The reported measurements were obtained from patent US8124635B2.

# Test system: Staphylococcus aureus (S. aureus—ATCC # 6538)
# assay info: Microtiter plate MIC / synergy test (Kull synergy index), M9GY medium, 30° C.
# Assay type: cell-based
# study conditions: Staphylococcus aureus, ATCC6538, 24 h, S. aureus, contact time 24 hour; read-out: MIC of the component acting alone (end point)
assay endpoint: MIC
Hi, when you answer, please include the unit after the number. Thanks!

Kindly note the recorded MIC for CCCCCCCCn1sc(Cl)c(Cl)c1=O , which is 0.1 µg/mL

Kindly note the recorded MIC for CCCCCCCCn1sccc1=O , which is 63 µg/mL

Kindly note the recorded MIC for CCCC1COC(Cn2cncn2)(c2ccc(Cl)cc2Cl)O1 (stereo not shown) , which is 100 µg/mL

Kindly note the recorded MIC for CC(C)(C)C(O)(CCc1ccc(Cl)cc1)Cn1cncn1 (stereo not shown) , which is 50 µg/mL
